target.system: Lysosomal alpha-glucosidase (Rattus norvegicus, UniProt Q6P7A9)
Sequence (Q6P7A9 whole entry): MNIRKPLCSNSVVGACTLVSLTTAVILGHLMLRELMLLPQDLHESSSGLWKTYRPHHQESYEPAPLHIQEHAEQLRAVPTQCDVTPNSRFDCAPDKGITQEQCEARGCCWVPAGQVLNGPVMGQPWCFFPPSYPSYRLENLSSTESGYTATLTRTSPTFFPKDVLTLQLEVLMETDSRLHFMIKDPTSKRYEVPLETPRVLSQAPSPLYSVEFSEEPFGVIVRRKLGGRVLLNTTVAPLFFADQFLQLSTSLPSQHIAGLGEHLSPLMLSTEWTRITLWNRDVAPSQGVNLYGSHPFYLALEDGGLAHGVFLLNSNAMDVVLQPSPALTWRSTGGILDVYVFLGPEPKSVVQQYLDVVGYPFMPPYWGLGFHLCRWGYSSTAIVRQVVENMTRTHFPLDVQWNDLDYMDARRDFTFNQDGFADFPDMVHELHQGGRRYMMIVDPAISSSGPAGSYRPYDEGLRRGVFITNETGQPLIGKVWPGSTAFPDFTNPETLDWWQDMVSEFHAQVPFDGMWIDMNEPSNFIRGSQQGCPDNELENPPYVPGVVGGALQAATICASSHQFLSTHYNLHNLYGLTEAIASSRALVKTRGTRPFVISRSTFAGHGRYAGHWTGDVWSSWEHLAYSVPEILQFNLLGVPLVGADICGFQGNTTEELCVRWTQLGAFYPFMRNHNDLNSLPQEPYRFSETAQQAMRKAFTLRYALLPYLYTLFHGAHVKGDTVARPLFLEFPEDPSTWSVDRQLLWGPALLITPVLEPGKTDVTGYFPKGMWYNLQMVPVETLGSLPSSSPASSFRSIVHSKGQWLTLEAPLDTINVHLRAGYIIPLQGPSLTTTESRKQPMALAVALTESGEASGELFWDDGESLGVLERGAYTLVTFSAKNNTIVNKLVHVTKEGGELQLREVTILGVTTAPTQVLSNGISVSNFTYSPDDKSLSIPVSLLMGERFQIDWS
assay.info: Concentration that causes 50% inhibition of mammalian alpha-glucosidase (lysosomal) was determined in rat liver; NI is less than 50 % inhibition at 1000 uM
readout.label: IC50

For the compound `OC[C@H]1NCC[C@H](O)[C@@H]1O` , what IC50 is on record? No inhibition

Also check `OC[C@H]1NC[C@H](O)[C@@H](O)[C@@H]1O` No inhibition

Another compound to look at: `OC[C@H]1NCC[C@@H](O)[C@@H]1O` No inhibition

// next record `OC[C@H]1NCC[C@@H](O)[C@H]1O` No inhibition

====

target.system: Alpha-glucosidase (Bos taurus)
Sequence (Q9MYM4 whole entry): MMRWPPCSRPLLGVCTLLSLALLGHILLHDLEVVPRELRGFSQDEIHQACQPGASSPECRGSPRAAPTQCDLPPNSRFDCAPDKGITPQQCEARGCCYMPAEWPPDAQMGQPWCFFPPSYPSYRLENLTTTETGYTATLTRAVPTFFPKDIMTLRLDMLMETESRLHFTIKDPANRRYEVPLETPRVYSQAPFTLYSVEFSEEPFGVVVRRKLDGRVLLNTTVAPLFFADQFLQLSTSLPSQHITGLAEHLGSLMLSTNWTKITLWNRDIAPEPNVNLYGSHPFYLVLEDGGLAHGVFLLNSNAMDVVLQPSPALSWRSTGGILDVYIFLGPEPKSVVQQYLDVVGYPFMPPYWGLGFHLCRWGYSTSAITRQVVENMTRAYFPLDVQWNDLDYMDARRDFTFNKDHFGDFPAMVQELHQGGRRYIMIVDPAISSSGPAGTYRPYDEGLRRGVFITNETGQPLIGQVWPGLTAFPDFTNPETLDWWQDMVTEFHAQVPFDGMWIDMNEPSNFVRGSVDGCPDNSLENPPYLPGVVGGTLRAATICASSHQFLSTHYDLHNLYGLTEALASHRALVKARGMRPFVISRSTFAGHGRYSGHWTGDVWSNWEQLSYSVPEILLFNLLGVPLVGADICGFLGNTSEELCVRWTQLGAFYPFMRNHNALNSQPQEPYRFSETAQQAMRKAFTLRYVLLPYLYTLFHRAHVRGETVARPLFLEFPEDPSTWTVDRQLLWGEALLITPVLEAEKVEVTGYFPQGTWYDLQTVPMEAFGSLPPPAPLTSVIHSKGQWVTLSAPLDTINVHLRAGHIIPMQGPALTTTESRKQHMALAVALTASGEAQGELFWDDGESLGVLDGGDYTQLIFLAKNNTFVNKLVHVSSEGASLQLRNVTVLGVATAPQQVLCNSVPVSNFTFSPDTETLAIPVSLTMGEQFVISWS
assay.info: Inhibition of mammalian alpha-glucosidase (lysosomal) was determined in bovine liver
Format: tissue-based
readout.label: pIC50
Bear in mind: pIC50 is minus log10 of a mol/L concentration; give just that figure.

Consider the molecule `OC[C@H]1NCC[C@@H](O)[C@@H]1O` and give its measured pIC50. 3.28

====

target.system: Trehalase (Rattus norvegicus, UniProt O70282)
Sequence (O70282 whole entry): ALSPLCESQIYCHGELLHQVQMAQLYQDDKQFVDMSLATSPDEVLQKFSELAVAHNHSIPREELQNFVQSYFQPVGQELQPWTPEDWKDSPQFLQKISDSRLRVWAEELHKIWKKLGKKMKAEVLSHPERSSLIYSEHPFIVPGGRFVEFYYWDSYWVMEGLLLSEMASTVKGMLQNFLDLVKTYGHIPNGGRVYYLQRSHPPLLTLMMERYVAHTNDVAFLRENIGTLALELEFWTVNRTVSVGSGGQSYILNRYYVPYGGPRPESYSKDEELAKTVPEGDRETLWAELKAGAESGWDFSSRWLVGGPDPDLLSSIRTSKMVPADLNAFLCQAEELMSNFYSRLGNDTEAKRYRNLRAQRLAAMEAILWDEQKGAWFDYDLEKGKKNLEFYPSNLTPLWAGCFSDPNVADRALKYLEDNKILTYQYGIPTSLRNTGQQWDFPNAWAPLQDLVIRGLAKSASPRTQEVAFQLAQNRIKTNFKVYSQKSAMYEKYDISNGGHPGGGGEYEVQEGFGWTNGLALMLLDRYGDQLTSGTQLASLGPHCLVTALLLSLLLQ
assay.info: Concentration that causes 50% inhibition of mammalian trehalase was determined in rat intestine
readout.label: IC50 (µM)
Reply with just the number (in µM).

Would you kindly share the measured IC50 for OC[C@H]1NC[C@H](O)[C@@H](O)[C@@H]1O (stereo in doubt; 1) ? 42
